Data provenance is patent US20110200615A1.

biological target: Botulinum neurotoxin type B, subtype B4 (BoNT/B4) (Clostridium botulinum); assay: KinExA flow fluorimetry; IgG in solution
// NB: equality with 0.06 nM counts as condition not met; only Kd strictly below is condition met

Lookup: Would you kindly verify if Kd of 1B18 IgG (antibody, V domains shown) VH: EVQLVQSGGGLVQPGGSRRLSCAASGFYFNAYWMTWVRQAPGKGLEWVANINLDGTEIYYLDSVKGRFTVSRDNVKNSVFLQMSSLRVEDTAVYFCARLEWGGRNGWVSPWGQGTLVTVSS VL: DVVMTQSPSSVSASVGDRVTITCRASQSISSYLNWYQQRPGKAPKLLIFAASSLQSAVPSRFSGSGSGTDFTLTISSLQPEDFATYYCQQSYSTPPTFGQGTKVEIKR is strictly less than 0.06 nM?
Found: condition met

Lookup: Would you kindly verify if Kd of 1B10.1 IgG (antibody, V domains shown) VH: QVQLVESGGGVVQPGRSLRLSCAASGFTFSHYGMHWVRQSPGKGLEWVAVIWYDGRNPYYAASVKGRFTISRDNDKNTLYLQMNSLRAEDTAVYYCVKDLTRFHDTTFGVFEMWGPGTTVTVSS VL: EIVLTQSPSFVSASVGDRVTITCRASQGISSWLAWYQQKPGKAPKLLIYAASSLQSGVPSRFSGSGSGTEFTLTISSLQPDDFATYYCQQYSSLYTFGQGTKVDIKR is strictly less than 0.06 nM?
Found: condition met

Lookup: Would you kindly verify if Kd of 2B23 IgG (antibody, V domains shown) VH: EVQLLESGGGLVQPGGSLRLSCAASGFTFSNYPMSWVRQAPGKGLAWVSSLTASGDNTFYADSVKGRFTISRDNSNNTLYLQMHSLRAEDTAVYYCAKALVGRYDISTGYYRPVMDSWGQGTLVTVSS VL: DIQMTQSPPSLSASVGDRVTITCRTSQGFTSALAWYQQKPGEPPKLLIYDASKLESGVPSRFSGSGSGTNFALTISSLQPEDFATYFCQQSNSYPLTFGGGTKVEIKR is strictly less than 0.06 nM?
Found: condition met

Lookup: Would you kindly verify if Kd of B12.1 IgG (antibody, V domains shown) VH: QVNLRESGGGVVQPGRSLRLSCAASGFTFSSYALHWVRQTPGKGLEWVALISYDGSNKYYADSVKGRFTISRDNSKNMLYLQMNSLRAEDTAVYYCAKDRSHYGDYVGYLDYWGQGTLVTVSS VL: AYVLTQPPSVSVAPGKTAAITCEGNNVGNKNVHWYQQRPGQAPVLVVHDDSDRPSGIPERFSGSNSGNTATLTINRVEAGDEADYYCQVWDSSSAQWVFGGGTKLTVLG is strictly less than 0.06 nM?
Found: condition not met

Lookup: Would you kindly verify if Kd of 2B25.1 IgG (antibody, V domains shown) VH: QVQLQESGPGLVKPSQTLSLSCSVSGASITSGTFYWSWIRQHPGKDLEWIGYIYYSGTTYYNPSLKSRVTLSVDTSKNQFSLKVTSLTAADTAVYHCARGVPIYDSSGTYRGTYFDYWGQGTLVTVSS VL: ESVLTQPPSVSAAPGQKVTISCSGSSSNIGNNYVSWYQQLPGTAPKLLIYDNNRRPSGIPDRFSGSKSGTSATLGITGLQTGDEADYYCGTWDSSLSEVVFGGGTKVTVLG is strictly less than 0.06 nM?
Found: condition met
